Quick list: inhibition per entry.
molecular target: Cholinesterase (Homo sapiens); experiment: Inhibition of recombinant human BuChE using butyrylthiocholine iodide as substrate at 10 uM preincubated with enzyme for 5 mins followed by substrate addition and measured after 1 min by Ellman's method relative to control; settings: time 6.0 min
Sequence (P06276 whole entry): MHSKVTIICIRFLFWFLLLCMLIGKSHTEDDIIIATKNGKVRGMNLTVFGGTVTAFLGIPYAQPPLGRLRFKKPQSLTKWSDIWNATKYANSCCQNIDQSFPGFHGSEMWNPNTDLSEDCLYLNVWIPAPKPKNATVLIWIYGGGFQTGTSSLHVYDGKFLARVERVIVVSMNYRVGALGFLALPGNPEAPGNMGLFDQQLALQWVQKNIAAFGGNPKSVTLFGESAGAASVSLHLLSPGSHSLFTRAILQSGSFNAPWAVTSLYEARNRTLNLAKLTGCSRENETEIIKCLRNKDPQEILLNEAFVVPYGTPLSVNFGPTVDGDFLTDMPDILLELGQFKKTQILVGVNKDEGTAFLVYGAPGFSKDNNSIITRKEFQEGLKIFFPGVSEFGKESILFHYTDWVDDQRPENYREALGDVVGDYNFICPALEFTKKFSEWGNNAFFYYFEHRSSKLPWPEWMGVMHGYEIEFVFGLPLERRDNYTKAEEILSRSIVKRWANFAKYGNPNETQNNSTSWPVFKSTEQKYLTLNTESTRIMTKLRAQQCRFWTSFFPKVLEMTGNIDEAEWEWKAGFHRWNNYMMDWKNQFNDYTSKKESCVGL
Quantity Kind: inhibition (%)

| Smiles | Study System | Unit Symbol | Recorded Result |
| --- | --- | --- | --- |
| C#CCN(CCc1ccc(OCC=C)cc1)Cc1cccc(OC)c1OCc1ccccc1 | Cholinesterase (Homo sapiens) | % | 42 |
| C#CCN(CCc1ccc(OC)cc1)Cc1cccc(OC)c1OCc1ccccc1 | Cholinesterase (Homo sapiens) | % | 66 |
| C=CCN(CCc1ccccc1OC)Cc1cccc(OC)c1OCc1ccccc1 | Cholinesterase (Homo sapiens) | % | 90 |
| C=CCN(CCc1ccccc1)Cc1cccc(OC)c1OCc1ccccc1 | Cholinesterase (Homo sapiens) | % | 88 |
| C#CCOc1ccc(CCN(CC=C)Cc2cccc(OC)c2OCc2ccccc2)cc1 | Cholinesterase (Homo sapiens) | % | 64 |
| C#CCN(CCc1ccc(O)cc1)Cc1cccc(OC)c1OCc1ccccc1 | Cholinesterase (Homo sapiens) | % | 78 |
| COc1cccc(CNCCc2ccccc2)c1OCc1ccccc1 | Cholinesterase (Homo sapiens) | % | 93 |
| CCCN(CCc1ccccc1)Cc1cccc(OC)c1OCc1ccccc1 | Cholinesterase (Homo sapiens) | % | 91 |
| CCN(CCc1ccc(OC)cc1)Cc1cccc(OC)c1OCc1ccccc1 | Cholinesterase (Homo sapiens) | % | 77 |
| C=CCN(CCCc1ccccc1)Cc1cccc(OC)c1OCc1ccccc1 | Cholinesterase (Homo sapiens) | % | 98 |
| C=CCOc1ccc(CCN(CC=C)Cc2cccc(OC)c2OCc2ccccc2)cc1 | Cholinesterase (Homo sapiens) | % | 71 |
| CCCN(CCCc1ccc(F)cc1)Cc1cccc(OC)c1OCc1ccccc1 | Cholinesterase (Homo sapiens) | % | 96 |
| CCCN(CCCc1ccccc1O)Cc1cccc(OC)c1OCc1ccccc1 | Cholinesterase (Homo sapiens) | % | 95 |
| COc1ccc(CCNCc2cccc(OC)c2OCc2ccccc2)cc1 | Cholinesterase (Homo sapiens) | % | 94 |
| COc1ccccc1CCN(C)Cc1cccc(OC)c1OCc1ccccc1 | Cholinesterase (Homo sapiens) | % | 85 |
| C#CCN(CCc1ccccc1OC)Cc1cccc(OC)c1OCc1ccccc1 | Cholinesterase (Homo sapiens) | % | 35 |
| COc1cccc(/C=N/CCc2ccc(O)cc2)c1OCc1ccccc1 | Cholinesterase (Homo sapiens) | % | 48 |
| COc1cccc(CN(C)CCCc2ccccc2)c1OCc1ccccc1 | Cholinesterase (Homo sapiens) | % | 97 |
| CCCN(CCCc1ccccc1)Cc1cccc(OC)c1OCc1ccccc1 | Cholinesterase (Homo sapiens) | % | 98 |
| CCN(CCc1ccc(O)cc1)Cc1cccc(OC)c1OCc1ccccc1 | Cholinesterase (Homo sapiens) | % | 94 |
| CCN(CCc1ccccc1)Cc1cccc(OC)c1OCc1ccccc1 | Cholinesterase (Homo sapiens) | % | 91 |
| C#CCN(CCc1cccc(OC)c1)Cc1cccc(OC)c1OCc1ccccc1 | Cholinesterase (Homo sapiens) | % | 28 |
| C=CCN(CCc1ccc(OC)cc1)Cc1cccc(OC)c1OCc1ccccc1 | Cholinesterase (Homo sapiens) | % | 72 |
